Data provenance is patent US20230167103A1.

# TARGET: human DGKζ (Homo sapiens)
# Construct: made in house; host or cells: Sf9 insect cells, baculovirus
# PROTOCOL SUMMARY: Human DGKζ kinase activity inhibition assay (ADP-Glo)
# Assay type: biochemical
# DETAILS: example compounds; recombinant full-length human DGKζ, 1,2-dioleoyl-sn-glycerol 7 μM, ATP 55 μM, 20 min at 22° C.; read-out: IC50 values of examples in in vitro human DGKζ kinase activity inhibition assays
pIC50: −log10 of the molar value.

# COMPOUND, pIC50
data = [
    ("CC(C(N)=O)N(c1ccc(F)cc1)c1nc(N)c(C(=O)c2cc(Br)no2)s1 (single isomer, unassigned) [Example 6.2]", 5.46),
    ("CC(C(N)=O)N(c1ccc(F)cc1)c1nc(N)c(C(=O)c2cc(C(=O)NC34CC(C3)C4)no2)s1 (racemic)", 6.71),
    ("CC(C(N)=O)N(c1ccc(F)cc1)c1nc(N)c(C(=O)c2cc(OCc3ccccc3)no2)s1 (racemic)", 7.57),
    ("COc1ccccc1-c1cc(C(=O)c2sc(N(c3ccc(F)cc3)C(C)C(N)=O)nc2N)on1 (racemic)", 7.57),
    ("CC(C(N)=O)N(c1ccc(F)cc1)c1nc(N)c(C(=O)c2cc(COC(=O)Nc3ccccc3)no2)s1 (racemic)", 7.54),
    ("CC(C(N)=O)N(c1ccc(F)cc1)c1nc(N)c(C(=O)c2cc(-c3ccc(OC(F)(F)F)cc3)no2)s1 (racemic)", 6.93),
    ("CC(C(N)=O)N(c1ccc(F)cc1)c1nc(N)c(C(=O)c2cc(C(=O)NC3CCC3)no2)s1 (racemic)", 6.53),
]

###

# TARGET: human DGKζ (Homo sapiens, UniProt Q13574)
# Construct: made in house; host or cells: Sf9 insect cells, baculovirus
# Sequence (Q13574 with tags, fused parts or gaps): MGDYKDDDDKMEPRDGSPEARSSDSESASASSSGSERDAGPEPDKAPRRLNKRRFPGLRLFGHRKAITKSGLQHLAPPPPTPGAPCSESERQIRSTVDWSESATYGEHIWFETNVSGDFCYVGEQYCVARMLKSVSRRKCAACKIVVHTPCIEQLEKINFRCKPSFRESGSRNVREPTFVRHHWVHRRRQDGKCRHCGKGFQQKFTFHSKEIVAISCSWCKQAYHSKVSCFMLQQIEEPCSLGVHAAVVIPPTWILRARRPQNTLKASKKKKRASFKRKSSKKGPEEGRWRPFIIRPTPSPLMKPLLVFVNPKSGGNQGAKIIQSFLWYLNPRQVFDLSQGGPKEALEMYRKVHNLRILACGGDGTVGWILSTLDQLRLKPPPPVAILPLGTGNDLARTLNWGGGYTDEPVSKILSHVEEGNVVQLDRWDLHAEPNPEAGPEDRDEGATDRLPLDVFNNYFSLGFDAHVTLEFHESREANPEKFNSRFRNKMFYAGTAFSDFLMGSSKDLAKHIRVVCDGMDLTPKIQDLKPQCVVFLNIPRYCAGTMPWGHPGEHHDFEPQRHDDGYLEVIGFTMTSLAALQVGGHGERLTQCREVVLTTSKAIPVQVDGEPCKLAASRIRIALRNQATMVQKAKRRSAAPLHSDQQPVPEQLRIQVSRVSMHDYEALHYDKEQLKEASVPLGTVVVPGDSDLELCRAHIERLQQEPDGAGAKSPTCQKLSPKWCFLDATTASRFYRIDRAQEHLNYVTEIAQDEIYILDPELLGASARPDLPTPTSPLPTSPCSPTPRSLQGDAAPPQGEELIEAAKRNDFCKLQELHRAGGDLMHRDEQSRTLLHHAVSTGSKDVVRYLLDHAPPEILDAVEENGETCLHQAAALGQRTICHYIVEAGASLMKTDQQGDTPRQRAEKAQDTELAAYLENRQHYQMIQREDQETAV
# PROTOCOL SUMMARY: Human DGKζ kinase activity inhibition assay (ADP-Glo)
# Format: biochemical
# DETAILS: example compounds; recombinant full-length human DGKζ, 1,2-dioleoyl-sn-glycerol 7 μM, ATP 55 μM, 20 min at 22° C.; read-out: IC50 values of examples in in vitro human DGKζ kinase activity inhibition assays
# Experimental: Human diacylglycerol kinase zeta (DGKζ) inhibitory activity of compounds of the present invention was quantified employing the human DGKζ kinase activity assay as described in the following paragraphs. In essence, the enzyme activity was measured by quantification of the adenosine-di-phosphate (ADP) generated as a co-product of the enzyme reaction via the “ADP-Glo™ Kinase Assay” kit from the company Promega. […]
OBSERVABLE: log10 of IC50 (log10 of the value in nM)

# COMPOUND, TARGET, ASSAY VALUE
rows = [
    ("CC(C(N)=O)N(c1ccc(F)cc1)c1nc(N)c(C(=O)c2cc(CN3CCCCC3)no2)s1 (racemic)", "human DGKζ (Homo sapiens, UniProt Q13574)", 1.94),
    ("CC(C(N)=O)N(c1ccc(F)cc1)c1nc(N)c(C(=O)c2cc(C(=O)NC3CC(F)(F)C3)no2)s1 (single isomer, unassigned) [Example 32.1]", "human DGKζ (Homo sapiens, UniProt Q13574)", 1.49),
    ("CC(C(N)=O)N(c1ccc(F)cc1)c1nc(N)c(C(=O)c2cc(C(=O)Nc3ccncc3)no2)s1 (racemic)", "human DGKζ (Homo sapiens, UniProt Q13574)", 2.62),
    ("CC(C(N)=O)N(c1ccc(F)cc1)c1nc(N)c(C(=O)c2cc(-c3ccccn3)no2)s1 (racemic)", "human DGKζ (Homo sapiens, UniProt Q13574)", 2.60),
    ("CC(C(N)=O)N(c1ccc(F)cc1)c1nc(N)c(C(=O)c2cc(C(=O)NC3CC(F)(F)C3)no2)s1 (racemic) [Example 32]", "human DGKζ (Homo sapiens, UniProt Q13574)", 1.97),
    ("CC(C(N)=O)N(c1ccc(F)cc1)c1nc(N)c(C(=O)c2cc(-c3cccnc3)no2)s1 (racemic)", "human DGKζ (Homo sapiens, UniProt Q13574)", 2.61),
    ("CC(C(N)=O)N(c1ccc(F)cc1)c1nc(N)c(C(=O)c2cc(C(=O)N3CCC3)no2)s1 (racemic)", "human DGKζ (Homo sapiens, UniProt Q13574)", 2.69),
]
